# System: SK-MEL-5 melanoma
# PROTOCOL NOTES: NCI tumour cell line growth inhibition, 48 h
QUANTITY: GI50

{"COMPOUND": "Oc1ccc(OCCOc2ccc(O)cc2)cc1", "OBSERVED": "1.5 µM"}
{"COMPOUND": "CO[C@H]1/C=C/[C@@](C)(O)/C=C/C(=O)O[C@H](C)[C@@H](C)CC/C=C/1C", "OBSERVED": "14 µM"}
{"COMPOUND": "O=C1C(=O)/C(=C/c2ccccc2)CCCCCC/C1=C/c1ccccc1", "OBSERVED": "3.25 µM"}
{"COMPOUND": "COc1ccccc1-c1cc(=O)c2c(C)cc(C)nc2[nH]1", "OBSERVED": "33.7 µM"}
{"COMPOUND": "COc1ccc(-c2cc(C(=O)N3N=C(c4ccc(N)cc4)CC3c3ccc(Cl)cc3)c3ccccc3n2)cc1 (stereo unspecified)", "OBSERVED": "0.701 µM"}
{"COMPOUND": "O=c1[nH]cnc2c1ncn2C1CCC(CO)O1 (stereo unspecified)", "OBSERVED": "> 1000 µM"}
{"COMPOUND": "NCCCNc1nc2ccccc2c2c(=O)c3cccc(F)c3sc12", "OBSERVED": "1.69 µM"}
{"COMPOUND": "COc1cc2c(Oc3ccc4[nH]c(C)cc4c3F)ncnc2cc1OCCCN1CCCC1", "OBSERVED": "1.62 µM"}
{"COMPOUND": "C1C[OH+]CCNCC[OH+]CC[OH+]CCN1.O.[Cl-].[Pt+4]", "OBSERVED": "> 100 µM"}
{"COMPOUND": "COc1cc(/C=C/[N+](=O)[O-])c([N+](=O)[O-])cc1OC", "OBSERVED": "3.39 µM"}
{"COMPOUND": "CC(=O)c1ccc(Nc2cc(-n3nnc4ccccc43)nc3ccccc23)cc1", "OBSERVED": "26.6 µM"}
{"COMPOUND": "Cc1ccc(N(CC(=O)Nc2ccc(S(=O)(=O)NC3CCN(C)CC3)cc2)S(=O)(=O)c2ccc(Cl)cc2)cc1", "OBSERVED": "1.83 µM"}
{"COMPOUND": "O=C(c1ccc(Oc2ccccc2)cc1Cl)c1c[nH]c2ncnc(N[C@@H]3CC[C@@H](CO)OC3)c12", "OBSERVED": "0.771 µM"}
{"COMPOUND": "CN(c1ccc(C(=O)O)cc1)c1cc(O/N=[N+](\\[O-])N(C)C)c([N+](=O)[O-])cc1[N+](=O)[O-]", "OBSERVED": "19.1 µM"}
{"COMPOUND": "O=C1NC(=O)/C(=C/c2ccc3ncccc3c2)S1", "OBSERVED": "> 25 µM"}
{"COMPOUND": "COc1ccccc1/C=C/C(=O)c1ccc(Nc2nc(Nc3ccc(F)cc3)nc(Nc3ccc(F)cc3)n2)cc1", "OBSERVED": "10.5 µM"}
